Origin of the recorded values: paper PMC10141580

# Tested on: panel of 140 standard cancer cell lines
# protocolText: ProliFiler-140 cancer cell line screen (CellTiterGlo, 72 h)
# Format: cell-based
# testContext: MCAS (Ovary); listed as Dox; read-out: IC50 [M] (ProliFiler-140)
measure: IC50 (M)

# compound, measure, resultNumber
records = [
    ("COc1cccc2c1C(=O)c1c(O)c3c(c(O)c1C2=O)C[C@@](O)(C(=O)CO)C[C@@H]3O[C@H]1C[C@H](N)[C@H](O)[C@H](C)O1 [doxorubicin, reference compound]", "IC50", "1.13e-07"),
]

====

# Tested on: NCI-60 standardized human tumor cell line panel
# protocolText: cells
# Type: cell-based
# testContext: IGROV1 (OV) cell line; log10 of GI50 in M
measure: NCI-60 screening: Log(GI50)

# compound, testedSystem, resultNumber
data = [
    ("COc1cc2cc(C(=O)N3C[C@@H](CCl)c4c3cc(OC(=O)N(CCC(=O)N3CCN(C)CC3)C3CCCCC3)c3ccccc43)[nH]c2c(OC)c1OC [P-CC60-CBI-TMI]", "NCI-60 standardized human tumor cell line panel", -5.64),
    ("COc1cc2cc(C(=O)N3C[C@@H](CCl)c4c3cc(OC(=O)N(CCC(=O)N3CCN(C)CC3)[C@H]3CCSSC3)c3ccccc43)[nH]c2c(OC)c1OC [P-SS60-CBI-TMI]", "NCI-60 standardized human tumor cell line panel", -6.3),
    ("COc1cc2cc(C(=O)N3CC(CCl)c4c3cc(OC(=O)N3CCN(C)C5CSSCC53)c3ccccc43)[nH]c2c(OC)c1OC (mixture of isomers) [Me-SS66T-CBI-TMI]", "NCI-60 standardized human tumor cell line panel", -7.23),
    ("COc1cc2cc(C(=O)N3CC(CCl)c4c3cc(OC(=O)N3CCN(C)C5CSSCC53)c3ccccc43)[nH]c2c(OC)c1OC (mixture of isomers) [Me-SS66C-CBI-TMI]", "NCI-60 standardized human tumor cell line panel", -5.82),
]

====

# System: panel of 140 standard cancer cell lines
# protocolText: ProliFiler-140 cancer cell line screen (CellTiterGlo, 72 h)
# Type: cell-based
# testContext: Homo sapiens, A 172, read-out: IC50 [M] (ProliFiler-140), A172 (Brain)
# Procedure: Incubations were performed for 72 h before automated viability readout with CellTiterGlo (Figure 8). End of Figure S11 (part 5 of 5): ProliFiler-140 cancer cell line screening for cytotoxicity of the prodrugs. 8-data-point dose response curves from CellTiter-Glo® viability readout. ProliFiler-140 cell line panel part V
measure: IC50 (M)

# compound, measure, resultNumber
rows = [
    ("COc1cc2cc(C(=O)N3C[C@@H](CCl)c4c3cc(OC(=O)N3CCN(C(=O)CCC(=O)N5CCN(C)CC5)[C@H]5CSSC[C@H]53)c3ccccc43)[nH]c2c(OC)c1OC [P-SS66C-CBI-TMI]", "IC50", "1.07e-07"),
]

====

# System: panel of 140 standard cancer cell lines
# protocolText: ProliFiler-140 cancer cell line screen (CellTiterGlo, 72 h)
# Assay type: cell-based
# testContext: read-out: IC50 [M] (ProliFiler-140); Colo 205 (Colon)

# compound, IC50 (M)
data = [
    ("COc1cc2cc(C(=O)N3C[C@@H](CCl)c4c3cc(OC(=O)N3CCN(C(=O)CCC(=O)N5CCN(C)CC5)[C@H]5CSSC[C@H]53)c3ccccc43)[nH]c2c(OC)c1OC [P-SS66C-CBI-TMI]", "8.61e-08"),
]

====

# Test system: panel of 140 standard cancer cell lines
# protocolText: ProliFiler-140 cancer cell line screen (CellTiterGlo, 72 h)
# Format: cell-based
# testContext: Homo sapiens, PANC-1, read-out: IC50 [M] (ProliFiler-140), PANC-1 (Pancreas)
measure: IC50 (M)

# compound, measure, resultNumber
data = [
    ("COc1cc2cc(C(=O)N3C[C@@H](CCl)c4c3cc(OC(=O)N3CCN(C(=O)CCC(=O)N5CCN(C)CC5)[C@H]5CSSC[C@H]53)c3ccccc43)[nH]c2c(OC)c1OC [P-SS66C-CBI-TMI]", "IC50", "2e-07"),
]

====

# Test system: panel of 140 standard cancer cell lines
# protocolText: ProliFiler-140 cancer cell line screen (CellTiterGlo, 72 h)
# Type: cell-based
# testContext: read-out: IC50 [M] (ProliFiler-140), SCH (Stomach)

# compound, IC50 (M)
data = [
    ("COc1cc2cc(C(=O)N3C[C@@H](CCl)c4c3cc(OC(=O)N3CCN(C(=O)CCC(=O)N5CCN(C)CC5)[C@H]5CSSC[C@H]53)c3ccccc43)[nH]c2c(OC)c1OC [P-SS66C-CBI-TMI]", "1.5e-08"),
]

====

Each entry below carries its reported pIC50.
# Tested on: panel of 140 standard cancer cell lines
# protocolText: ProliFiler-140 cancer cell line screen (CellTiterGlo, 72 h)
# Format: cell-based
# testContext: A498; read-out: IC50
pIC50: −log10 of the molar value.
measure: pIC50

# compound, resultNumber
data = [
    ("COc1cc2cc(C(=O)N3C[C@@H](CCl)c4c3cc(OC(=O)N(CCC(=O)N3CCN(C)CC3)C3CCCCC3)c3ccccc43)[nH]c2c(OC)c1OC [P-CC60-CBI-TMI]", 6.52),
    ("COc1cc2cc(C(=O)N3C[C@@H](CCl)c4c3cc(OC(=O)N(CCC(=O)N3CCN(C)CC3)[C@H]3CCSSC3)c3ccccc43)[nH]c2c(OC)c1OC [P-SS60-CBI-TMI]", 7.30),
]

====

# System: panel of 140 standard cancer cell lines
# protocolText: ProliFiler-140 cancer cell line screen (CellTiterGlo, 72 h)
# Assay type: cell-based
# testContext: Homo sapiens, NCI-N87, read-out: IC50 [M] (ProliFiler-140), NCI-N87 (Stomach)

# molecule, IC50, M
measured = [
    ("COc1cc2cc(C(=O)N3C[C@@H](CCl)c4c3cc(OC(=O)N3CCN(C(=O)CCC(=O)N5CCN(C)CC5)[C@H]5CSSC[C@H]53)c3ccccc43)[nH]c2c(OC)c1OC [P-SS66C-CBI-TMI]", "7.5e-08"),
]

====

# System: NCI-60 standardized human tumor cell line panel
# protocolText: cells
# Assay type: cell-based
# testContext: OVCAR-4 (OV) cell line; log10 of GI50 in M
measure: NCI-60 screening: Log(GI50)

# molecule, measure, resultNumber
records = [
    ("COc1cc2cc(C(=O)N3C[C@@H](CCl)c4c3cc(OC(=O)N(CCC(=O)N3CCN(C)CC3)C3CCCCC3)c3ccccc43)[nH]c2c(OC)c1OC", "NCI-60 screening: Log(GI50)", -5.63),
    ("COc1cc2cc(C(=O)N3C[C@@H](CCl)c4c3cc(OC(=O)N(CCC(=O)N3CCN(C)CC3)[C@H]3CCSSC3)c3ccccc43)[nH]c2c(OC)c1OC", "NCI-60 screening: Log(GI50)", -6.33),
    ("COc1cc2cc(C(=O)N3CC(CCl)c4c3cc(OC(=O)N3CCN(C)C5CSSCC53)c3ccccc43)[nH]c2c(OC)c1OC (mixture of isomers) [Me-SS66C-CBI-TMI]", "NCI-60 screening: Log(GI50)", -5.79),
    ("COc1cc2cc(C(=O)N3CC(CCl)c4c3cc(OC(=O)N3CCN(C)C5CSSCC53)c3ccccc43)[nH]c2c(OC)c1OC (mixture of isomers) [Me-SS66T-CBI-TMI]", "NCI-60 screening: Log(GI50)", -6.8),
]

====

Each entry below carries its reported log10 of GI50.
# Tested on: NCI-60 standardized human tumor cell line panel
# protocolText: cells
# Assay type: cell-based
# testContext: SK-OV-3; read-out: GI50
measure: log10 of GI50 (log10 of the value in nM)

# compound, log10 of GI50
records = [
    ("COc1cc2cc(C(=O)N3C[C@@H](CCl)c4c3cc(OC(=O)N(CCC(=O)N3CCN(C)CC3)[C@H]3CCSSC3)c3ccccc43)[nH]c2c(OC)c1OC", 2.41),
    ("COc1cc2cc(C(=O)N3C[C@@H](CCl)c4c3cc(OC(=O)N(C)CCSSCCN3CCOCC3)c3ccccc43)[nH]c2c(OC)c1OC [SS00M-CBI-TMI]", 1.20),
    ("COc1cc2cc(C(=O)N3CC(CCl)c4c3cc(OC(=O)N3CCN(C)C5CSSCC53)c3ccccc43)[nH]c2c(OC)c1OC (mixture of isomers) [Me-SS66C-CBI-TMI]", 1.53),
    ("COc1cc2cc(C(=O)N3C[C@@H](CCl)c4c3cc(OC(=O)N(CCC(=O)N3CCN(C)CC3)C3CCCCC3)c3ccccc43)[nH]c2c(OC)c1OC", 3.34),
    ("COc1cc2cc(C(=O)N3CC(CCl)c4c3cc(OC(=O)N3CCN(C)C5CSSCC53)c3ccccc43)[nH]c2c(OC)c1OC (mixture of isomers) [Me-SS66T-CBI-TMI]", 1.08),
]
